Reported MIC by item:
tested on: Mycobacterium tuberculosis H37Rv; assay: Mycobacterium tuberculosis H37Rv Inhibition Assay; assay type: cell-based; conditions: ATCC 25618 / H37Rv, H37Rv strain (ATCC25618), Middlebrook 7H9, resazurin fluorescence, read-out: MtB MIC

Record lookup: for Mycobacterium tuberculosis H37Rv, what MIC belongs to `Cl.O=c1ccc2ncc(=O)n3c2n1C[C@H]3CN1CCC(NCc2ccc(F)c(C(F)(F)F)c2)CC1` ? 0.04 µg/mL

Then what about the molecule `Cl.O=c1ccc2ccc(=O)n3c2n1C[C@H]3CN1CCC(NCc2ccc(Cl)c(Cl)c2)CC1` ? 0.019 µg/mL

Then what about the molecule Cc1ccc(CNC2CCN(CC3Cn4c(=O)ccc5ncc(=O)n3c54)CC2)cc1C (stereo not shown) ? 0.262 µg/mL

Then what about the molecule `Cl.O=c1ccc2ncc(=O)n3c2n1C[C@H]3CN1CCC(NCc2ccc(C(F)(F)F)nc2)CC1` ? 0.078 µg/mL

----------
Reported MIC by item:
test system: Mycobacterium tuberculosis H37Rv; test: Mycobacterium tuberculosis H37Rv Inhibition Assay; format: cell-based; details: ATCC 25618 / H37Rv, H37Rv strain (ATCC25618), Middlebrook 7H9, resazurin fluorescence, read-out: MtB MIC
Provide only the numeric value, understood in µg/mL.

Worked cases, MIC given:
[
  {
    "compound": "O=c1ccc2ncc(=O)n3c2n1C[C@@H]3CN1CCC(NCc2ccc(C(F)(F)F)nc2)CC1",
    "observed": 2.3
  },
  {
    "compound": "Cc1ncc(CNC2CCN(C[C@@H]3Cn4c(=O)ccc5ccc(=O)n3c54)CC2)cc1Cl.Cl",
    "observed": 0.04
  },
  {
    "compound": "Cl.O=c1ccc2ncc(=O)n3c2n1CC3CN1CCC(NCc2ccc(Cl)c(Cl)c2)CC1 (centres unmarked)",
    "observed": 0.015
  },
  {
    "compound": "O=c1ccc2ncc(=O)n3c2n1CC3CN1CCC(NCc2cc(Br)cs2)CC1 (centres unmarked)",
    "observed": 1.19
  },
  {
    "compound": "O=c1ccc2ncc(=O)n3c2n1CC3CN1CCC(NCc2ccc(C(F)(F)F)nn2)CC1 (centres unmarked)",
    "observed": 0.865
  },
  {
    "compound": "Cc1ncc(CNC2CCN(C[C@@H]3Cn4c(=O)cnc5ccc(=O)n3c54)CC2)cc1Cl.Cl",
    "observed": 0.08
  },
  {
    "compound": "Cc1cc(CNC2CCN(C[C@@H]3Cn4c(=O)ccc5ccc(=O)n3c54)CC2)cnc1C#N",
    "observed": 0.538
  }
]

// moving on: another record for MIC
Entry under review: Cc1cc(CNC2CCN(CC3Cn4c(=O)ccc5ncc(=O)n3c54)CC2)ccc1Cl (centres unmarked) . Reported MIC? 0.069

----------
tested on: Mycobacterium tuberculosis H37Rv; assay: Mycobacterium tuberculosis H37Rv Inhibition Assay; assay type: cell-based; settings: ATCC 25618 / H37Rv, H37Rv strain (ATCC25618), Middlebrook 7H9, resazurin fluorescence, read-out: MtB MIC
Reported log10 MIC by item:
Lab note - MIC converted to log10 from values in µg/mL.

Worked cases, log10 MIC given:
[
  {
    "compound": "Cc1cc(CNC2CCN(C[C@@H]3Cn4c(=O)ccc5ccc(=O)n3c54)CC2)ncc1Cl.Cl [Example 7]",
    "log10 MIC": -0.52
  },
  {
    "compound": "O=c1ccc2ncc(=O)n3c2n1CC3CN1CCC(NCc2ccc(F)c(F)c2)CC1 (centres unmarked) [Example 44]",
    "log10 MIC": -0.57
  },
  {
    "compound": "O=c1ccc2ncc(=O)n3c2n1C[C@@H]3CN1CCC(NCc2ccc(Cl)c(Cl)c2)CC1 [Example 47]",
    "log10 MIC": -1.14
  },
  {
    "compound": "Cc1cc(CNC2CCN(CC3Cn4c(=O)ccc5ncc(=O)n3c54)CC2)cnc1F (centres unmarked) [Example 33]",
    "log10 MIC": -0.27
  },
  {
    "compound": "O=c1ccc2ncc(=O)n3c2n1CC3CN1CCC(NCc2ccc([N+](=O)[O-])cc2)CC1 (centres unmarked) [Example 38]",
    "log10 MIC": -0.56
  }
]

// moving on: another record for log10 MIC
Record lookup: for Mycobacterium tuberculosis H37Rv, what log10 MIC belongs to O=c1ccc2ncc(=O)n3c2n1CC3CN1CCC(NCc2cnc(Cl)s2)CC1 (centres unmarked) [Example 37] ? 0.34

----------
test system: Mycobacterium tuberculosis H37Rv; test: Mycobacterium tuberculosis H37Rv Inhibition Assay; format: cell-based; conditions: ATCC 25618 / H37Rv, H37Rv strain (ATCC25618), Middlebrook 7H9, resazurin fluorescence, read-out: MtB MIC
resultType: MIC (µg/mL)
Provide only the numeric value, understood in µg/mL.

[
  {
    "molecule": "Cl.N#Cc1cc(CNC2CCN(C[C@@H]3Cn4c(=O)ccc5ncc(=O)n3c54)CC2)ccc1F",
    "MIC [µg/mL]": 0.11
  },
  {
    "molecule": "O=c1ccc2ncc(=O)n3c2n1CC3CN1CCC(NCc2ccc(Cl)cc2)CC1 (centres unmarked)",
    "MIC [µg/mL]": 0.266
  },
  {
    "molecule": "O=c1cnc2ccc(=O)n3c2n1C[C@H]3CN1CCC(NCc2ccc(C(F)(F)F)nc2)CC1",
    "MIC [µg/mL]": 0.14
  },
  {
    "molecule": "Cl.O=c1ccc2ncc(=O)n3c2n1C[C@H]3CN1CCC(NCc2ccc(Cl)c(Cl)c2)CC1",
    "MIC [µg/mL]": 0.04
  },
  {
    "molecule": "O=c1ccc2ncc(=O)n3c2n1CC3CN1CCC(NCc2cccc(Cl)c2)CC1 (centres unmarked)",
    "MIC [µg/mL]": 1.06
  },
  {
    "molecule": "COc1cc(CNC2CCN(CC3Cn4c(=O)ccc5ncc(=O)n3c54)CC2)ccc1C (centres unmarked)",
    "MIC [µg/mL]": 1.09
  }
]

Entry under review: `Cc1cc(CNC2CCN(C[C@@H]3Cn4c(=O)ccc5ccc(=O)n3c54)CC2)cnc1C` . Reported MIC? 1.05

Then what about the molecule Cc1ncc(CNC2CCN(CC3Cn4c(=O)ccc5ncc(=O)n3c54)CC2)cc1Cl (centres unmarked) ? 0.069

Then what about the molecule O=c1ccc2ncc(=O)n3c2n1CC3CN1CCC(NCc2ccc(Br)cc2)CC1 (centres unmarked) ? 0.147

Then what about the molecule Cc1ccc(CNC2CCN(CC3Cn4c(=O)ccc5ncc(=O)n3c54)CC2)cc1F (centres unmarked) ? 0.066

Then what about the molecule `Cc1ncc(CNC2CCN(C[C@@H]3Cn4c(=O)ccc5ncc(=O)n3c54)CC2)cc1Cl.Cl` ? 0.04

Then what about the molecule COc1ccc(CNC2CCN(CC3Cn4c(=O)ccc5ncc(=O)n3c54)CC2)cc1Cl (centres unmarked) ? 1.14

Then what about the molecule O=c1ccc2ncc(=O)n3c2n1CC3CN1CCC(NCc2ccc(C(F)(F)F)cc2)CC1 (centres unmarked) ? 0.144

Then what about the molecule O=c1ccc2ncc(=O)n3c2n1CC3CN1CCC(NCc2ccc(Br)cn2)CC1 (centres unmarked) ? 1.18

Then what about the molecule Cc1cc(CNC2CCN(CC3Cn4c(=O)ccc5ncc(=O)n3c54)CC2)cnc1C (centres unmarked) ? 2.1

----------
test system: Mycobacterium tuberculosis H37Rv; assay: Mycobacterium tuberculosis H37Rv Inhibition Assay; type: cell-based; conditions: ATCC 25618 / H37Rv, H37Rv strain (ATCC25618), Middlebrook 7H9, resazurin fluorescence, read-out: MtB MIC
resultType: log10(MIC) (log10 of the value in µg/mL)
Lab note - MIC converted to log10 from values in µg/mL.

Worked cases, log10(MIC) given:
[
  {
    "compound": "O=c1ccc2ncc(=O)n3c2n1CC3CN1CCC(NCc2cncc(Br)c2)CC1 (centres unmarked)",
    "log10(MIC)": -0.05
  },
  {
    "compound": "Cl.O=c1ccc2ccc(=O)n3c2n1C[C@H]3CN1CCC(NCc2ccc(C(F)(F)F)nc2)CC1",
    "log10(MIC)": -0.81
  },
  {
    "compound": "O=c1ccc2ncc(=O)n3c2n1CC3CN1CCC(NCc2ccc(Cl)c(C(F)(F)F)c2)CC1 (centres unmarked)",
    "log10(MIC)": -1.11
  },
  {
    "compound": "Cl.N#Cc1ncc(CNC2CCN(C[C@@H]3Cn4c(=O)ccc5ccc(=O)n3c54)CC2)cc1Cl",
    "log10(MIC)": -1.09
  }
]

Entry under review: Cl.O=c1ccc2ncc(=O)n3c2n1CC3CN1CCC(NCc2ccc(C(F)(F)F)nc2)CC1 (centres unmarked) . Reported log10(MIC)? -0.51

Then what about the compound `O=c1ccc2ccc(=O)n3c2n1C[C@H]3CN1CCC(NCc2ccc(C(F)(F)F)nn2)CC1` ? -0.36

Then what about the compound O=c1ccc2ncc(=O)n3c2n1CC3CN1CCC(NCc2ccc(OC(F)(F)F)cc2)CC1 (centres unmarked) ? 0.38

Then what about the compound Cc1ccc(CNC2CCN(CC3Cn4c(=O)ccc5ncc(=O)n3c54)CC2)cc1[N+](=O)[O-] (centres unmarked) ? -1.44
